Experiment: Therapeutic index, ratio of IC50 for human KB cells to IC50 for Plasmodium falciparum 3D7
Format: cell-based
Conditions: KB cells (cytotoxicity) versus Plasmodium falciparum 3D7, read-out: TI

[
  {
    "SMILES_STR": "C[C@H]1[C@H](c2ccc(CN3CCCC3)[nH]2)O[C@@H]2O[C@@]3(C)CC[C@H]4[C@H](C)CC[C@@H]1[C@@]24OO3",
    "selectivity ratio": 2780
  },
  {
    "SMILES_STR": "C[C@H]1[C@H](c2ccc(CN3CCN(C)CC3)n2C)O[C@@H]2O[C@@]3(C)CC[C@H]4[C@H](C)CC[C@@H]1[C@@]24OO3",
    "selectivity ratio": 14800
  },
  {
    "SMILES_STR": "C[C@H]1[C@H](c2ccc(CN3CCCC3)n2C)O[C@@H]2O[C@@]3(C)CC[C@H]4[C@H](C)CC[C@@H]1[C@@]24OO3",
    "selectivity ratio": 11400
  },
  {
    "SMILES_STR": "C[C@H]1[C@H](c2ccc(CN3CCOCC3)[nH]2)O[C@@H]2O[C@@]3(C)CC[C@H]4[C@H](C)CC[C@@H]1[C@@]24OO3",
    "selectivity ratio": 22600
  },
  {
    "SMILES_STR": "C[C@H]1[C@H](c2ccc(CN(C)C)[nH]2)O[C@@H]2O[C@@]3(C)CC[C@H]4[C@H](C)CC[C@@H]1[C@@]24OO3",
    "selectivity ratio": 2130
  },
  {
    "SMILES_STR": "C[C@H]1[C@H](c2ccc(CN3CCSCC3)n2C)O[C@@H]2O[C@@]3(C)CC[C@H]4[C@H](C)CC[C@@H]1[C@@]24OO3",
    "selectivity ratio": 19100
  }
]

All figures here come from ChEMBL document CHEMBL1154742.
